assay: in vivo; settings: rabbit
measured attribute: concentration at 7 day

Query: // concentration at 7 day lookup, key: `COc1ccc2c(c1)c(CC(=O)O)c(C)n2C(=O)c1ccc(Cl)cc1`
Response: ~110 ng/mL
